Below: a set of entries, each annotated with reported pIC50.
# target_under_test: human TLR8 (Homo sapiens)
# Sequence (Q9NR97 27-1041): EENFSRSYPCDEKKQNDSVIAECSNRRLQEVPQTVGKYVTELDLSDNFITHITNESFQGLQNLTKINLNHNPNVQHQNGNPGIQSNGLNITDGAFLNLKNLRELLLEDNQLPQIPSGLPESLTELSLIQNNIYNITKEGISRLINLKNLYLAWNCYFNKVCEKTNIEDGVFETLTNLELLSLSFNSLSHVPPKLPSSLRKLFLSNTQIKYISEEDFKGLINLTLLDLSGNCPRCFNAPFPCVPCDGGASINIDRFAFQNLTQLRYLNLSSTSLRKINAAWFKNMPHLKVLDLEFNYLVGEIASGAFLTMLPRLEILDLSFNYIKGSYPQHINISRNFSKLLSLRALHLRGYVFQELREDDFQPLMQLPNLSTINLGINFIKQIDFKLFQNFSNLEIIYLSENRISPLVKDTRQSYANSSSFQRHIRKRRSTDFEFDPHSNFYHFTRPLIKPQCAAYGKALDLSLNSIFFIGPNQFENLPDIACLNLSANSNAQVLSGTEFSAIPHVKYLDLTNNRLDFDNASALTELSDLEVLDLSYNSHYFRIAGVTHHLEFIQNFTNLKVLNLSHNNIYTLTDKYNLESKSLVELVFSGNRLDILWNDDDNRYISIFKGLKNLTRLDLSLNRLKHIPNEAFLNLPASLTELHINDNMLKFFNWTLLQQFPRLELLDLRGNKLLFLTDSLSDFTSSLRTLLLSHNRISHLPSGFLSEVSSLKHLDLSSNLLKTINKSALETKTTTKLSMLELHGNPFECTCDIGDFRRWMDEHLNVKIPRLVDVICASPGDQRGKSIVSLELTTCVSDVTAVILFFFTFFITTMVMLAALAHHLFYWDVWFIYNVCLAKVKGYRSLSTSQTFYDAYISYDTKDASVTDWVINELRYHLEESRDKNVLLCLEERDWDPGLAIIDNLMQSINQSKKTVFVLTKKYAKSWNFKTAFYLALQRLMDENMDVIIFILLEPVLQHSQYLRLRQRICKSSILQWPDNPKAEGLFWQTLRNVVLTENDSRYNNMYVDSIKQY
# protocol_details: TLR8 inhibition reporter assay (HEK-Blue cells, SEAP reporter, R848 stimulation)
# condition_parameters: HEK-Blue cells overexpressing human TLR8, SEAP reporter, R848 15.9 μM
pIC50: −log10 of the molar value.
experimental_endpoint: pIC50

>>> val("Cc1cc(-c2[nH]c3ccc(C4CCN(C(=O)CCN5CCOCC5)CC4)cc3c2C(C)C)cn2nnnc12")
"> 7.00"
>>> val("Cc1cc2nnnn2cc1-c1[nH]c2ccc(C3CCN(Cc4ccn(C)n4)CC3)cc2c1C(C)C")
"> 7.00"
>>> val("Cc1cn2cc(-c3[nH]c4ccc(C5CCN(CC(=O)N(C)C)CC5)cc4c3C(C)C)cc(C(F)(F)F)c2n1")
"6.00 to 7.00"
>>> val("CCc1c(-c2ccnc3[nH]ccc23)[nH]c2ccc(C3CCN(C4CC(C)(C)NC(C)(C)C4)CC3)cc12")
"> 7.00"
>>> val("Cc1cc(-c2[nH]c3ccc(C4CCN(C(=O)CN5CCCCC5)CC4)cc3c2C(C)C)cn2nnnc12")
"> 7.00"
>>> val("CC(C)c1c(-c2ccc(C#N)c3ncccc23)[nH]c2ccc(C3CCN(CCS(C)(=O)=O)CC3)cc12")
"> 7.00"

---

# target_under_test: human TLR7 (Homo sapiens)
# Sequence (Q9NYK1 27-1049): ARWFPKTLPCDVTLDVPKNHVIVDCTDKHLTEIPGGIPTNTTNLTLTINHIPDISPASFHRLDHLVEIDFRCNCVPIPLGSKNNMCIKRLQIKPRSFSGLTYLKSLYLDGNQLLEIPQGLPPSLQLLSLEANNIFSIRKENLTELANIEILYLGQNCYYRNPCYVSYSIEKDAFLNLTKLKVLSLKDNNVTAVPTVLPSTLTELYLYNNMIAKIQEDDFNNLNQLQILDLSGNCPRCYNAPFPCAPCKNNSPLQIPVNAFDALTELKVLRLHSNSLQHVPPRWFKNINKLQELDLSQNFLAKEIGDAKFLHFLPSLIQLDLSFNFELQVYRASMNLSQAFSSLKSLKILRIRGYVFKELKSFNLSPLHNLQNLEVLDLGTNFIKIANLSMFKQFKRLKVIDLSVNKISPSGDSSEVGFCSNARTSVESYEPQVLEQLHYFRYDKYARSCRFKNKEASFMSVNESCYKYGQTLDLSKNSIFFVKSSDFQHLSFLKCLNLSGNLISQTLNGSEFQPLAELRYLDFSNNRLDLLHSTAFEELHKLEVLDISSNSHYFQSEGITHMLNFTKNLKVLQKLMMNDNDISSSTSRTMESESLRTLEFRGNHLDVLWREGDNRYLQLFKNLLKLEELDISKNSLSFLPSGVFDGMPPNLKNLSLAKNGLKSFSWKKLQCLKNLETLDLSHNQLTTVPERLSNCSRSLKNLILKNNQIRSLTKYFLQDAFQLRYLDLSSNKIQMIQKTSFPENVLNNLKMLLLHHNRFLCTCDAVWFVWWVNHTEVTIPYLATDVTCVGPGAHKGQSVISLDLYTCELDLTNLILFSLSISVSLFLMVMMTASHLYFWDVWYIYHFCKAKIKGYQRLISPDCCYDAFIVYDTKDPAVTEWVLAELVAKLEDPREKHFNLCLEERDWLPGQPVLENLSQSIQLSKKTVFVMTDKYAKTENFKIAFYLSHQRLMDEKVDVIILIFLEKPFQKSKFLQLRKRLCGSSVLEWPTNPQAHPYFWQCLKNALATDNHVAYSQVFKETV
# protocol_details: TLR7 inhibition reporter assay (HEK-Blue cells, SEAP reporter, gardiquimod stimulation)
# condition_parameters: HEK-Blue cells overexpressing human TLR7, SEAP reporter, gardiquimod 7.5 μM
experimental_endpoint: IC50

>>> val("Cc1cc(-c2[nH]c3ccc(C4CCN(CC(=O)N(C)C)CC4)cc3c2C(C)C)cc2[nH]cnc12")
"1000 to 50000 nM"
>>> val("Cc1nc2cc(-c3[nH]c4ccc(C5CCN(C(=O)C[C@H](C)O)CC5)cc4c3C(C)C)ccn2n1")
"< 100 nM"
>>> val("Cc1c(-c2[nH]c3ccc(C4CCNCC4)cc3c2C(C)C)ccc2nccn12")
"< 100 nM"
>>> val("CNC(=O)CN1CCC(c2ccc3[nH]c(-c4cc(C)n5nccc5c4)c(C(C)C)c3c2)CC1")
"< 100 nM"
>>> val("Cc1c(-c2[nH]c3ccc(C4CCN(C5COC5)CC4)cc3c2C(C)C)cn2nnnc2c1C")
"< 100 nM"
>>> val("Cc1cn2cc(-c3[nH]c4ccc(C5CCN(C6COC6)CC5)cc4c3C(C)C)cc(C)c2n1")
"< 100 nM"
>>> val("CC(C)c1c(-c2cnc3cn[nH]c3c2)[nH]c2ccc(C3CCN(C(=O)CN(C)C)CC3)cc12")
"< 100 nM"
>>> val("COc1cc(-c2[nH]c3ccc(C4CCN(CCS(C)(=O)=O)CC4)cc3c2C(C)C)cc2ncnn12")
"< 100 nM"
>>> val("CC(C)c1c(-c2ccnc3c2ccn3S(C)(=O)=O)[nH]c2ccc(C3CCN(C(=O)CN(C)C)CC3)cc12")
"1000 to 50000 nM"

---

# target_under_test: human TLR9 (Homo sapiens)
# Construct: host or cells: HEK-Blue cells (HEK293-derived reporter line)
# Sequence (Q9NR96 26-1032): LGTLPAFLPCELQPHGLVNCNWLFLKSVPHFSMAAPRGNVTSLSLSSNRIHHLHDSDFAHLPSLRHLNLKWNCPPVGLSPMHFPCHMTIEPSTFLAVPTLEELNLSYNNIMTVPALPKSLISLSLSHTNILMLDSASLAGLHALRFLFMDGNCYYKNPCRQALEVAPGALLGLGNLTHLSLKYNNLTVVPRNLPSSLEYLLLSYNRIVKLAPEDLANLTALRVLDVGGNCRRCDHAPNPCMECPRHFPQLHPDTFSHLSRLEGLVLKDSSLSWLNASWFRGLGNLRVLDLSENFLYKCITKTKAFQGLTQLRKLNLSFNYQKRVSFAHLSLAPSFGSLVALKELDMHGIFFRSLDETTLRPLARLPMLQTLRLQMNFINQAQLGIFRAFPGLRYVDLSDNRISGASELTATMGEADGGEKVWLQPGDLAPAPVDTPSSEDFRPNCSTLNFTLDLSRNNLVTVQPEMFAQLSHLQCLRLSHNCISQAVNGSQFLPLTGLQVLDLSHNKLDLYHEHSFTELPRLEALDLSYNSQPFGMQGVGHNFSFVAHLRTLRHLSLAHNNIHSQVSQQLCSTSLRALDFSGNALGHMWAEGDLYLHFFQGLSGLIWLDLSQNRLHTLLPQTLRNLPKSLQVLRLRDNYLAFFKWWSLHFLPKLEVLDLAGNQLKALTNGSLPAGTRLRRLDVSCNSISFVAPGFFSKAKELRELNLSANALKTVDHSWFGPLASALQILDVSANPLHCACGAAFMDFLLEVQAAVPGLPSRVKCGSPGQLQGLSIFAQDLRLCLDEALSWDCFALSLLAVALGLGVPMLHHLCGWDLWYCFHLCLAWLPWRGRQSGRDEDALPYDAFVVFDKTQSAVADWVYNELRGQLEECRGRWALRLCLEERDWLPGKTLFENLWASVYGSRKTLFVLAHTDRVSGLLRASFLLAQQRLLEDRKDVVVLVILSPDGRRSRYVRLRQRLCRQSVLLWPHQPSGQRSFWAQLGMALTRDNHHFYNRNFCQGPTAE
# protocol_details: TLR9 inhibition reporter assay (HEK-Blue cells, SEAP reporter, ODN2006 stimulation)
# Format: cell-based
# condition_parameters: HEK-Blue cells overexpressing human TLR9, SEAP reporter, ODN2006 5 nM
experimental_endpoint: IC50

>>> val("Cc1nc2c(-c3[nH]c4ccc(C5CCNCC5)cc4c3C)ccnc2[nH]1")
"0.1 to 1 µM"
>>> val("Cc1cc(-c2[nH]c3ccc(C4CCN(CC(C)(C)O)CC4)cc3c2C(C)C)cc2nccn12")
"0.1 to 1 µM"
>>> val("CC(C)c1c(-c2ccnc3c2ncn3C)[nH]c2ccc(C3CCNCC3)cc12 [Example 45]")
"1 to 50 µM"
>>> val("CNCCN1CCC(c2ccc3[nH]c(-c4ccc5nccn5c4)c(C(C)C)c3c2)CC1")
"0.1 to 1 µM"
>>> val("Cc1nc2cc(-c3[nH]c4ccc(C5CCN(CC(C)(C)O)CC5)cc4c3C(C)C)ccn2n1")
"0.1 to 1 µM"
>>> val("Cc1cc(-c2[nH]c3ccc(C4CCN(CC#N)CC4)cc3c2C(C)C)cc2cnnn12")
"0.1 to 1 µM"
>>> val("Cc1cn2cc(-c3[nH]c4ccc(C5CCN(C6COC6)CC5)cc4c3C(C)C)cc(C)c2n1")
"0.1 to 1 µM"
>>> val("COc1cc(-c2[nH]c3ccc(C4CCN(CCS(C)(=O)=O)CC4)cc3c2C(C)C)nn2ncnc12")
"1 to 50 µM"
>>> val("CC(C)c1c(-c2cnc3ccnn3c2)[nH]c2ccc(C3CCN(C(=O)[C@@H]4NCC[C@H]4O)CC3)cc12")
"1 to 50 µM"
>>> val("CCc1c(-c2ccnc3[nH]ccc23)[nH]c2ccc(C3CCN(Cc4cccn4C)CC3)cc12")
"1 to 50 µM"
>>> val("CC(C)c1c(-c2ccnc3[nH]ncc23)[nH]c2cc(C(F)(F)F)c(C3CCN(CC4CCNC4)CC3)cc12 (stereo not shown)")
"0.1 to 1 µM"
>>> val("CCc1c(-c2cnc3cc(C)cnn23)[nH]c2ccc(C3CCNCC3)cc12")
"1 to 50 µM"
>>> val("CC(C)c1c(-c2ccnc3[nH]ncc23)[nH]c2ccc(C3CCNCC3)cc12")
"0.1 to 1 µM"
>>> val("COCCN1CCC(c2ccc3[nH]c(-c4ccc(C#N)c5ncccc45)c(C(C)C)c3c2)CC1")
"1 to 50 µM"
>>> val("CC(C)c1c(-c2cnc3c(cnn3C)c2)[nH]c2ccc(C3CCN(C(=O)CN(C)C)CC3)cc12")
"1 to 50 µM"
>>> val("Cc1nn2ccc(-c3[nH]c4ccc(C5CCN(CC(=O)N(C)C)CC5)cc4c3C(C)C)nc2c1F")
"1 to 50 µM"
>>> val("CNC(=O)CN1CCC(c2ccc3[nH]c(-c4cc(C)c5oc(=O)n(C)c5c4)c(C(C)C)c3c2)CC1")
"1 to 50 µM"
>>> val("Cc1cc(-c2[nH]c3ccc(C4CCN(CCS(C)(=O)=O)CC4)cc3c2C(C)C)cc2cnnn12")
"1 to 50 µM"
>>> val("CCc1c(-c2cnc3cn[nH]c3c2)[nH]c2ccc(C3CCN(C4CCN(C(C)C)CC4)CC3)cc12")
"< 0.1 µM"
>>> val("Cc1c(-c2[nH]c3ccc(C4CCN(C5COC5)CC4)cc3c2C(C)C)nn2ncnc2c1C")
"1 to 50 µM"
>>> val("Cc1cc2cc(-c3[nH]c4ccc(C5CCNCC5)cc4c3C(C)C)cc(CC(C)C)n2n1")
"1 to 50 µM"
>>> val("Cc1cc2cc(-c3[nH]c4ccc(C5CCN(C(=O)CN(C)C)CC5)cc4c3C(C)C)ccn2n1")
"1 to 50 µM"
>>> val("CC(C)c1c(-c2n[nH]c3nc[nH]c(=O)c23)[nH]c2ccc(C3CCNCC3)cc12")
"1 to 50 µM"
>>> val("Cc1cc2cc(-c3[nH]c4ccc(C5CCN(CC(=O)N(C)C)CC5)cc4c3C(C)C)cc(CC(C)C)n2n1")
"1 to 50 µM"
>>> val("CC(C)c1c(-c2ccc3nccn3c2)[nH]c2ccc(C3CCN(Cc4c[nH]cn4)CC3)cc12")
"< 0.1 µM"
